test system: NCI-H1048 cells; assay: MTT proliferation assay, NCI-H1048; format: cell-based; details: 5 days compound exposure, 1:3 serial dilution starting at 10 μM;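 further: Dose-response in 96-well plates over 8 or 10 concentration points, with exposure spanning 3-4 cell doublings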
*1 amine or outer side, *2 acyl side, *3 side chain or, on linkers, in order; H or OH if unused. Where a SMILES comes first, the peptide text is derived from it. Bridges are numbered along the chain shown (N, C = ends). [ ]: non-standard residue; d: D form. The star is where a group is joined. X191 = CN([C@@H](Cc1cc(Cl)ccc1-c1ccc(N2CCOCC2)c(F)c1F)C(=O)[*:2])[*:1]; X91 = COc1cc(-c2ccc(Cl)cc2C[C@@H](C(=O)[*:2])N(C)[*:1])ccc1N1CCOCC1; X200 = CN([C@@H](Cc1cc(F)ccc1C1CCN(C(=O)C2CC2)CC1)C(=O)[*:2])[*:1]; X82 = CN([C@@H](Cc1cc(Cl)ccc1-c1cnn(S(C)(=O)=O)c1)C(=O)[*:2])[*:1]; X90 = CC(=O)N1CC=C(c2ccc(Cl)cc2C[C@@H](C(=O)[*:2])N(C)[*:1])CC1; NMehhhLys(Me) = CN([C@@H](CCCCCCCN(C)[*:3])C(=O)[*:2])[*:1]; NMe(hhhLys) = CN([C@@H](CCCCCCCN[*:3])C(=O)[*:2])[*:1]; X132 = CN([C@@H](Cc1cc(Cl)cc2ccoc12)C(=O)[*:2])[*:1]; cBuCO(3,3-F2-1-CF3) = O=C(C1(C(F)(F)F)CC(F)(F)C1)*; Pro(trans-4-F) = O=C(O)[C@@H]1C[C@@H](F)CN1; Gly(cPr) = N[C@H](C(=O)O)C1CC1
Reported GI50 values follow for various molecules
The reply should contain only the number, in nM.

The examples below pair each entry with its known result.
| MOLECULE | ENDPOINT UNIT | MEASUREMENT |
| --- | --- | --- |
| CC(=O)N1CC=C(c2ccc(Cl)cc2C[C@H]2C(=O)NCCCCCCC[C@H](N(C)C(=O)[C@@H](NC(=O)[C@@H]3C[C@@H](F)CN3C(=O)C3(C(F)(F)F)CC(F)(F)C3)C3CC3)C(=O)N[C@@H](CC(C)C)C(=O)N2C)CC1 [Example 20] ({cBuCO(3,3-F2-1-CF3)}-[Pro(trans-4-F)][Gly(cPr)][NMe(hhhLys)]L[X90]; lactam 3-C) | nM | 20 |
| CC(C)C[C@@H]1NC(=O)[C@@H](N(C)C(=O)[C@@H](NC(=O)[C@@H]2C[C@@H](F)CN2C(=O)C2(C(F)(F)F)CC(F)(F)C2)C2CC2)CCCCCCCN(C)C(=O)[C@H](Cc2cc(Cl)ccc2-c2cnn(S(C)(=O)=O)c2)N(C)C1=O [Example 238] ({cBuCO(3,3-F2-1-CF3)}-[Pro(trans-4-F)][Gly(cPr)][NMehhhLys(Me)]L[X82]; lactam 3-C) | nM | 10 |
| CC(C)C[C@@H]1NC(=O)[C@@H](N(C)C(=O)[C@@H](NC(=O)[C@@H]2C[C@@H](F)CN2C(=O)C2(C(F)(F)F)CC(F)(F)C2)C2CC2)CCCCCCCN(C)C(=O)[C@H](Cc2cc(Cl)cc3ccoc23)N(C)C1=O [Example 394] ({cBuCO(3,3-F2-1-CF3)}-[Pro(trans-4-F)][Gly(cPr)][NMehhhLys(Me)]L[X132]; lactam 3-C) | nM | 90 |

# input molecule: CC(C)C[C@@H]1NC(=O)[C@@H](N(C)C(=O)[C@@H](NC(=O)[C@@H]2C[C@@H](F)CN2C(=O)C2(C(F)(F)F)CC(F)(F)C2)C2CC2)CCCCCCCN(C)C(=O)[C@H](Cc2cc(F)ccc2C2CCN(C(=O)C3CC3)CC2)N(C)C1=O [Example 101] ({cBuCO(3,3-F2-1-CF3)}-[Pro(trans-4-F)][Gly(cPr)][NMehhhLys(Me)]L[X200]; lactam 3-C) ; wanted: its GI50
20

So what does the record say about GI50 for CC(C)C[C@@H]1NC(=O)[C@@H](N(C)C(=O)[C@@H](NC(=O)[C@@H]2C[C@@H](F)CN2C(=O)C2(C(F)(F)F)CC(F)(F)C2)C2CC2)CCCCCCCN(C)C(=O)[C@H](Cc2cc(Cl)ccc2-c2ccc(N3CCOCC3)c(F)c2F)N(C)C1=O [Example 386] ({cBuCO(3,3-F2-1-CF3)}-[Pro(trans-4-F)][Gly(cPr)][NMehhhLys(Me)]L[X191]; lactam 3-C) ?
30

GET /values?readout=GI50&item= COc1cc(-c2ccc(Cl)cc2C[C@H]2C(=O)N(C)CCCCCCC[C@H](N(C)C(=O)[C@@H](NC(=O)[C@@H]3C[C@@H](F)CN3C(=O)C3(C(F)(F)F)CC(F)(F)C3)C3CC3)C(=O)N[C@@H](CC(C)C)C(=O)N2C)ccc1N1CCOCC1 [Example 367] ({cBuCO(3,3-F2-1-CF3)}-[Pro(trans-4-F)][Gly(cPr)][NMehhhLys(Me)]L[X91]; lactam 3-C)
20
